Biological target: human ferroportin (Homo sapiens, UniProt Q9NP59)
Construct: luciferase reporter (read with the Nano-Glo Luciferase Assay System); expressed in transfected cells; host or cells: CHO cells, stably transfected, expression induced with doxycycline
Sequence (Q9NP59 whole entry): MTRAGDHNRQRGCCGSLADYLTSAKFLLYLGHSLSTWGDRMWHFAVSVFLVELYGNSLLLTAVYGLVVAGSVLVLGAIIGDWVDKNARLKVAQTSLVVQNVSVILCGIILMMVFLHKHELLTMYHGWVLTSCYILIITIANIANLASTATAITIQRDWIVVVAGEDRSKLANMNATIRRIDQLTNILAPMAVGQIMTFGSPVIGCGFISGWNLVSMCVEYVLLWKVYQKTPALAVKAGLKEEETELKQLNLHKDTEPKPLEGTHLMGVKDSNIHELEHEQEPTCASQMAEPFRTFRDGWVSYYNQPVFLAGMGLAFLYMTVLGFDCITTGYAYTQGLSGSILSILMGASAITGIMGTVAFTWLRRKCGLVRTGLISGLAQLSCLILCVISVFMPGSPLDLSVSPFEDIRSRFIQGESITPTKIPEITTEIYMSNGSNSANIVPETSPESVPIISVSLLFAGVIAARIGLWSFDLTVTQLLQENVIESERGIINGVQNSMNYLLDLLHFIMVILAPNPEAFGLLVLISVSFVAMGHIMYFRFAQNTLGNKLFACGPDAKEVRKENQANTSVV
Assay: Biological in-vitro ferroportin internalization assay (luciferase reporter)
Type: cell-based
Conditions: average pEC50; stably-transfected CHO cell line expressing human ferroportin tagged to a luciferase reporter; 6 h incubation with test compound
Description: The protocol for this assay is generally as described in WO2018/128828, incorporated herein by reference in its entirety. Functional internalization of ferroportin protein was measured using a stably-transfected CHO cell line expressing the human ferroportin tagged to a luciferase reporter. […] Cells were incubated with the test compounds for 6 h, and subsequently luciferase activity was measured using the Nano-Glo Luciferase Assay System and Glomax (Promega, Madison, Wis.). […]
The reader will find reported pEC50 values listed item by item below.
Lab note: jot down the number only; don't add units.

Solved cases (8 shown):
> print(dat)
                                   compound                                targetdesc  valuereported
1  C[C@@H](O)COc1ccnc(-c2nc3c(c(N(C)CC(=O)NC4(C)CCC4)n2)CCC3)c1  human ferroportin (Homo sapiens, UniProt Q9NP59)            7.8
2  CO[C@@H]1CCN(CCOc2ccnc(-c3nc4c(c(N(C)CC(=O)NC(C)(C)C)n3)CCC4)c2)C1  human ferroportin (Homo sapiens, UniProt Q9NP59)            8.1
3  CN(CC(=O)Nc1cccnc1)c1nc(-c2cc3ccccc3cn2)nc2c1CCC2  human ferroportin (Homo sapiens, UniProt Q9NP59)            7.1
4  CN(CC(=O)NC1CCOC1)c1nc(-c2cc(OCCO)ccn2)nc2c1CCC2 (stereo not drawn)  human ferroportin (Homo sapiens, UniProt Q9NP59)            7.2
5  CN(CC(=O)NC1(C)CCCC1)c1nc(-c2cc3cn[nH]c3cn2)nc2c1CCC2  human ferroportin (Homo sapiens, UniProt Q9NP59)            7.7
6  COc1ccnc(-c2nc3c(c(N(C)CC(=O)NC4(C)CCCC4)n2)CCC3)c1  human ferroportin (Homo sapiens, UniProt Q9NP59)            7.5
7  CN(CC(=O)N1CCCCC1)c1nc(-c2cc(OCCO)ccn2)nc2c1CCC2  human ferroportin (Homo sapiens, UniProt Q9NP59)              8
8  COc1ccnc(-c2nc3c(c(N(C)CC(=O)N[C@@H]4CCCC[C@H]4O)n2)CCC3)c1  human ferroportin (Homo sapiens, UniProt Q9NP59)            7.1

Which measured pEC50 value corresponds to CN(CC(=O)NC(C)(C)C)c1nc(-c2cc(O[C@@H]3CCN(CC(F)F)C3)ccn2)nc2c1CCC2 ?
8.2

Which measured pEC50 value corresponds to CN(CC(=O)Nc1cnn(C)c1)c1nc(-c2cc(OCC3CC3)ccn2)nc2c1CCC2 ?
7.5

Which measured pEC50 value corresponds to Cc1ccnc(-c2nc3c(c(N(C)CC(=O)Nc4cccc(F)c4)n2)CCC3)c1 ?
7.7

Which measured pEC50 value corresponds to CN(CC(=O)NC(C)(C)C)c1nc(-c2cc(OC[C@@H]3CCCN3C)ccn2)nc2c1CCC2 ?
8.1

Which measured pEC50 value corresponds to COc1ccc(NC(=O)CN(C)c2nc(-c3cc(O[C@H]4CCOC4)ccn3)nc3c2CCC3)cn1 ?
7.6

Which measured pEC50 value corresponds to CN(CC(=O)NC(C)(C)C)c1cc(-c2ncccn2)nc2c1CCC2 ?
6.6

Which measured pEC50 value corresponds to C[C@H](C(=O)NC1CC(F)(F)C1)N(C)c1nc(-c2ccccn2)nc2c1CCC2 ?
7

Which measured pEC50 value corresponds to CN1CC(Oc2ccnc(-c3nc4c(c(N(C)CC(=O)NC(C)(C)C)n3)CCC4)c2)C1 ?
8

Which measured pEC50 value corresponds to CN(CC(=O)Nc1ccc(C(F)(F)F)nc1)c1nc(-c2cc3cn[nH]c3cn2)nc2c1CCC2 ?
7.1

Which measured pEC50 value corresponds to CN(CC(=O)NCC(F)(F)F)c1nc(-c2cc(OCC(C)(C)O)ccn2)nc2c1CCC2 ?
7.9

Which measured pEC50 value corresponds to C[C@H](C(=O)NC(C)(C)C)N(C)c1nc(-c2cc(OC3COC3)ccn2)nc2c1CCC2 ?
7.8
